Target: TAF1(1) (h) bromodomain (Homo sapiens, UniProt P21675)
Construct: Bromodomain
Sequence (P21675 1397-1505 limits assumed): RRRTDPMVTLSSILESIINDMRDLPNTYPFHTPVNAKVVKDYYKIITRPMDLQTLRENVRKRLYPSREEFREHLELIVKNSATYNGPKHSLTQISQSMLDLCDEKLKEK
Test: Epigenetic binding assay, Bromodomain
Conditions: Table 4; read-out: Reference IC50
pIC50: −log10 of the molar value.

MOLECULE | pIC50
CCCOc1ccn2c(C(C)=O)cc(-c3ccccc3S(C)(=O)=O)c2c1 [GSK2801, reference compound] | 5.36

###

System: IL-8 release from IL-17A and TNFα-induced primary human keratinocytes
Assay: Keratinocyte IL-8 release (assay number 1250)
Assay type: cell-based
Conditions: read-out: Inhibition of IL-8 release, Rel EC50
ENDPOINT NAME: EC50

COMPOUND | ENDPOINT NAME | OBSERVED RESULT
CC(C)=CCC[C@H](CO)[C@@H]1CC[C@@H](C)c2c1cc(C)c(O)c2O [Compound 1, 7,8,18-trihydroxyserrulat-14-ene] | EC50 | 157 nM
